# ASSAY PROTOCOL: Thermal analysis (TG/DTA and TGA 7)
# Format: physicochemical
# STUDY CONDITIONS: thermogravimetry, air
MEASUREMENT LABEL: temperature of first decomposition step (cleavage of amino group / degradation)

>>> print(df.to_string())
                                   compound        result
0  NCCCCCCCCCCCCCCCC(O)(P(=O)(O)O)P(=O)(O)O [Compound 10]  about 200 °C
1  NCCCCCCCCCC(O)(P(=O)(O)O)P(=O)(O)O [Compound 7]  about 200 °C
2  NCCC(O)(P(=O)(O)O)P(=O)(O)O [Compound 1]    100–200 °C
3  NCCCCCCCCCCC(O)(P(=O)(O)O)P(=O)(O)O [Compound 8]        200 °C

Okay, now this compound:
Incoming: Query: temperature of first decomposition step (cleavage of amino group / degradation); subject: NCCCCCCCCCCCC(O)(P(=O)(O)O)P(=O)(O)O [Compound 9]
Outgoing: about 200 °C
